molecular target: Aurora A (Homo sapiens); construct: GST-tAurora A (123-401aa) fusion protein obtained above; experiment: Aurora Kinase A luminescent kinase assay (Kinase-Glo); conditions: IC50 values (concentration of a test compound at which activity of 50% of Aurora A is inhibited), GST-tAurora A (123-401aa) fusion protein
Sequence (O14965 123-401): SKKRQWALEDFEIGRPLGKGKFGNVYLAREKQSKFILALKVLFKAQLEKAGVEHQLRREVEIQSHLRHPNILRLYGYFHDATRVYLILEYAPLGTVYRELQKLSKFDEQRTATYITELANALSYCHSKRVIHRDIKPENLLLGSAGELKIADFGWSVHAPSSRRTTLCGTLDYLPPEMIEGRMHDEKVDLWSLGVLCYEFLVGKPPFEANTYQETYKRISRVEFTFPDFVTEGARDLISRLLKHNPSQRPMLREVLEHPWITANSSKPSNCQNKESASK
pIC50: −log10 of the molar value.
endpoint label: pIC50

So what's the measured pIC50 for this one? COc1cc2ncnc(NCCc3ccc(NC(=O)NC4CC4)cc3)c2cc1OC [Compound 230] > 6.00
